biological target: CHIKV nsP2 ATPase (Chikungunya virus, UniProt Q8JUX6); assay: Secondary CHIKV nsP2 ATPase assay (ADP-Glo); conditions: read-out: ADP-Glo IC50; Avge n=2; 1 nM CHIKV nsP2fl, 30 μM ATP, 30 min pre-incubation; listed as 1798
Sequence (Q8JUX6 536-1333): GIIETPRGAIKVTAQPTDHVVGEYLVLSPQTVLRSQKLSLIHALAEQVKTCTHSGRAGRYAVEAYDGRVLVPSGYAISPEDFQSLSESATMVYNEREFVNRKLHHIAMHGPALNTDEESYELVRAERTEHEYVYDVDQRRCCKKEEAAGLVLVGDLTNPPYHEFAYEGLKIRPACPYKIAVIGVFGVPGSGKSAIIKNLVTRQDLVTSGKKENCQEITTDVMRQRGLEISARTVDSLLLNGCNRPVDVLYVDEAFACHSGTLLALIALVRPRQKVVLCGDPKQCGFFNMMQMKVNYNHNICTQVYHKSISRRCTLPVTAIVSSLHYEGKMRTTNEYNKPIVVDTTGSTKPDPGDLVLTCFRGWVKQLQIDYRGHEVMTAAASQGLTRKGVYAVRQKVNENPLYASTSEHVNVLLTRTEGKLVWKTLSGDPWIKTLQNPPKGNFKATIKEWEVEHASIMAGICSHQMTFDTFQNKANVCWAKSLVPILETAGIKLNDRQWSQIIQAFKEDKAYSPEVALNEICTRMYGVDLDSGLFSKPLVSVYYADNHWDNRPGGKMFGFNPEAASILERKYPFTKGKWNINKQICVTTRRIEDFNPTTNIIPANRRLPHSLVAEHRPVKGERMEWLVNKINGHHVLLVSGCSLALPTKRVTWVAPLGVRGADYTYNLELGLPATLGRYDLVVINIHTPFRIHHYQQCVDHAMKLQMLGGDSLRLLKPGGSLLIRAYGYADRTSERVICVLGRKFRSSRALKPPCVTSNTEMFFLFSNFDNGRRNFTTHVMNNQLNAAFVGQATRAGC
pIC50: −log10 of the molar value.
Assay Metric: pIC50

1) COc1ccc(OC)c(N2C(=O)/C(=C/c3ccco3)C(=O)NC2=S)c1 [RA-0001798]    > 5.00

----------
Recorded IC50, one value per entry.
target: CHIKV nsP2 ATPase (Chikungunya virus); experiment: Secondary CHIKV nsP2 ATPase assay (ADP-Glo)
Assay Metric: IC50 (µM)

1) CS(=O)(=O)NCC1CCOC2(CCN(C(=O)C3(c4ccccc4)CCCC3)CC2)C1 (centres unmarked)    2.3
2) CC1SC2(C(=O)Nc3ccccc32)N(CCc2c[nH]c3ccccc23)C1=O (centres unmarked)    27.5
3) O=C(CN1C(=O)C2C3CCC(C3)C2C1=O)OCC(=O)c1ccc(Cl)cc1 (centres unmarked)    19.9
4) O=c1c(O)c(-c2ccc(O)c(O)c2)oc2cc(O)cc(O)c12    26.7
5) Cc1nc(CC2CCOC3(CCN(C(=O)C4(c5ccccc5)CCCC4)CC3)C2)no1 (centres unmarked)    1.5
6) O=C1c2oc3ccccc3c(=O)c2C(c2ccc(O)cc2)N1Cc1ccccc1Cl (centres unmarked)    14.8
7) Cc1ncc2c(n1)COC21CN(C(=O)C2(c3ccccc3)CCCC2)C1    5.6
8) COc1cc(Cl)c(NS(=O)(=O)c2c(C)sc(C)c2-c2[nH]nc(C)c2C)c(OC)c1    0.6
